Biological target: human AT2R (Homo sapiens, UniProt P50052)
Construct: expressed in transfected cells
Sequence (P50052 1-363): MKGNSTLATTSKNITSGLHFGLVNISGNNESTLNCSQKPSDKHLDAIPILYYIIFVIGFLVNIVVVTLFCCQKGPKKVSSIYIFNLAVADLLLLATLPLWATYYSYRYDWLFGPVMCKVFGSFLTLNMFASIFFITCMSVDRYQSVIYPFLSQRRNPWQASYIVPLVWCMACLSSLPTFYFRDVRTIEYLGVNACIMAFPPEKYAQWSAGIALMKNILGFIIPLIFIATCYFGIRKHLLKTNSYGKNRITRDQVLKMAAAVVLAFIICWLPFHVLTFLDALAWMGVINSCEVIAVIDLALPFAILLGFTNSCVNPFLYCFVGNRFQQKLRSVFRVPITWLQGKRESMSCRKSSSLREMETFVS
Assay: Competition radioligand binding (125I-Sar1-Ile8-AngII) in AT2R-transfected HEK-293 cells
Details: AT2R over AT1R, Table 3
Experimental Readout: Fold AT2R selectivity

Below, 5 substances whose answers are already recorded.
Substance | Fold AT2R selectivity
D-Arg-Val-Tyr-Ile-His-β-Pro-Phe [D-Arg β-Pro-Ang III] | >300,000 fold
Tetrazole-CONH-Arg-Val-Tyr-Ile-His-β-Pro-Trp [Tet-βPro-Trp-8-Ang III] | >275,000 fold
Arg-Val-Tyr-β-Ile-His-Pro-Trp [βILe-Trp-8-Ang III] | >2500 fold
Arg-Val-Tyr-Ile-His-β-Pro-Ala [βPro-Ala-8-Ang III] | 200 fold
D-Arg-Val-Tyr-Ile-His-β-Pro-Trp [D-Arg-βPro-Trp-8-Ang III] | >18,000 fold

For every record below, what is its Fold AT2R selectivity?
1. Tetrazole-CONH- Arg-Val-Tyr-Ile-His- β-Pro-Phe [Tet-βPro-Ang III]
2. β-Arg-Val-Tyr-Ile-His-Pro-Trp [βArg-Trp-8-Ang III]
3. Nicotinamido-Arg-Val-Tyr-Ile-His-β-Pro-Trp [Nic-βPro-Trp-8-Ang III]

Result:
1: >60,000 fold; 2: 1854 fold; 3: >15,000 fold

response.value for Arg-Val-Tyr-Ile-His-β-Pro-Trp [βPro-Trβ-8-Ang III] (field: Fold AT2R selectivity) = >400,000 fold
